Kindly state boiling point for each of the entries shown.
One number for each entry, in °C.

Known boiling point results, listed for orientation:
Clc1ccccc1Br; 204
FC(Cl)C(Cl)Cl (configuration not stated); 102
CCCCCOC(=O)c1ccccc1C(=O)OCCCCC; 342

I'm hoping you can list boiling point for every molecule here, please.
1. C#CC(C)(C)C
2. CC(=O)OCCN(C)C
3. Cc1ccc(N=C=O)cc1N=C=O
4. CCCCCCC#N

Ans.
1: 37.7; 2: 152; 3: 251; 4: 183

---

Kindly state melting point for each of the entries shown.
One number for each entry, in °C.

Known melting point results, listed for orientation:
Oc1c(Br)c(Br)c(Br)c(Br)c1Br; 230
Cc1cc(Br)ccc1O; 64.7
O=C(O)[C@H]1O[C@@H](OCC(Cl)(Cl)Cl)[C@H](O)[C@@H](O)[C@@H]1O; 142
Nc1cccc2cc3ccccc3nc12; 108
ClC(Br)C(Cl)Br (configuration not stated); -26
COc1c(Cl)c(Cl)c([N+](=O)[O-])c(Cl)c1Cl; 103
Cc1cc(N)n(-c2ccccc2)n1; 116
O=C(O)c1ccc(C(F)(F)F)cc1; 220
CC(C)(C)C1CCCCC1; -41.2
Nc1cc([N+](=O)[O-])ccc1Cl; 121

I'm hoping you can list melting point for every molecule here, please.
1. NC(=O)c1ccc([N+](=O)[O-])cc1
2. O=C(O)c1cc2ccccc2o1
3. CC1=NCCN1
4. CCCCCCCCC#N
5. CNCCCC12CCC(c3ccccc31)c1ccccc12
6. COc1cc(C=O)ccc1O
7. CCOC(=O)CNc1ccccc1

Ans.
[200, 192, 107, -34.2, 93, 81.5, 58]

I'm hoping you can list melting point for every molecule here, please.
1. O=C(O)[C@@]1(O)CC(O)[C@H](O)[C@H](O)C1 (some centres not stated)
2. CC(=O)O[C@]1(C(C)=O)CC[C@H]2[C@@H]3CCC4=CC(=O)CC[C@]4(C)[C@@]3(F)[C@@H](O)C[C@@]21C

Ans.
1: 162; 2: 268

---

Kindly state melting point for each of the entries shown.
Give bare numbers, in °C.

Known melting point results, listed for orientation:
O=C(NNc1ccccc1)NNc1ccccc1; 170
CCCC(C)CC (stereo not given); -119
O=CCCCCC=O; -8
O=[N+]([O-])c1ccc(CBr)cc1; 99

Pending compound:
Qu. Read off the recorded melting point for "COc1cc(C=CC(=O)O)cc(OC)c1OC"
Ans. 127

---

propertyMeasured: log10 vapour pressure (mmHg)
Answers are plain numbers.

Known log10 vapour pressure (mmHg) results, listed for orientation:
Clc1ccc(CSC(Cn2cncn2)=Nc2ccc(Cl)cc2Cl)cc1; -9.2
O=C=Nc1ccccc1; 0.41
NC(=S)C(N)=S; -5.78
C=CC(Cl)CCl (stereo not drawn); 1.34
CCN(CCO)c1ccc(N=Nc2ccc([N+](=O)[O-])cc2)cc1; -13.4
C=CC(=O)OCCCC; 0.737

I'm hoping you can list log10 vapour pressure (mmHg) for every molecule here, please.
1. Fc1cc(F)cc(F)c1
2. CNC(=O)ON=CC(C)(C)SC
3. C=Cc1cccc(Cl)c1
4. CCC(CC)Nc1c([N+](=O)[O-])cc(C)c(C)c1[N+](=O)[O-]
5. CCCCC1CCCCC1
6. FC(F)(F)C1(F)C(F)(F)C(F)(F)C(F)(F)C(F)(F)C1(F)F

Ans.
1. 2.02
2. -4.46
3. -0.0083
4. -4.52
5. 0.119
6. 2.02

Data credit: the OPERA property sets (Mansouri et al. 2018)
